Exercise: for every item that follows, state its recorded ED50.
# study-system: Vitamin D3 receptor (Rattus norvegicus) (UniProt P13053)
# Sequence (P13053 whole entry): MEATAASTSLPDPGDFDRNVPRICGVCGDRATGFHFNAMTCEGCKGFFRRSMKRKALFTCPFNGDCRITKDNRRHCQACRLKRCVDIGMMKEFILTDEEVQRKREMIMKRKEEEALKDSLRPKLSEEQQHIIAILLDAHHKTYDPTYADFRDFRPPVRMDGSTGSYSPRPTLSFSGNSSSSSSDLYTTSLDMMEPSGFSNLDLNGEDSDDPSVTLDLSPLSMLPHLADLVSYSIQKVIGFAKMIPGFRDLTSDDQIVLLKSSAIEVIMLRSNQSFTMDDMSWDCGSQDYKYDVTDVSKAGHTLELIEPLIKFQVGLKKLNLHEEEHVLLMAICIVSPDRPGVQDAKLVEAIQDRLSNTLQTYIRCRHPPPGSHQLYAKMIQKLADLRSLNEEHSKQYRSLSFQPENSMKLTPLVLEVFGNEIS
# measurement-protocol: Transactivation of VDR in rat osteosarcoma cells assessed as 24-hydroxylase transcriptional activity by luciferase reporter gene assay
# Type: cell-based
Answer format reminder: number followed by unit.

Solved cases (4 shown):
C[C@@H](CCC(F)(F)C(C)(C)O)[C@H]1CC[C@H]2/C(=C/C=C3C[C@@H](O)C[C@H](O)C3)CCC[C@]12C	40 pM
C=C1[C@H](O)CC(=C/C=C2\CCC[C@]3(C)[C@@H]([C@H](C)CCCC(C)(C)O)CC[C@@H]23)C[C@H]1O	7 pM
C[C@H](CCC(F)(F)C(C)(C)O)[C@H]1CC[C@H]2/C(=C/C=C3C[C@@H](O)C[C@H](O)C3)CCC[C@]12C	40 pM
C=C1[C@H](O)CC(=C/C=C2\CCC[C@]3(C)[C@@H]([C@@H](C)CCC(F)(F)C(C)(C)O)CC[C@@H]23)C[C@H]1O	20 pM

Consider now this further compound.
The reported ED50 of the compound `C=C1[C@H](O)CC(=C/C=C2\CCC[C@]3(C)[C@@H]([C@H](C)CCC(F)(F)C(C)(C)O)CC[C@@H]23)C[C@H]1O` was 10 pM

----------
# Tested on: Rattus norvegicus
# measurement-protocol: Induction of bone mobilization activity in weaning Sprague-Dawley rat assessed as increase in serum calcium level at 260 pmol, ip for 4 consecutive dose at an interval of 24 hrs measured 24 hrs after last dose (reference value: 4.4 to 4.5 mg/dl)
# Assay type: functional
Exercise: for every item that follows, state its recorded Activity.
Give bare numbers, in mg/dL.

C[C@@H](CCC(F)(F)C(C)(C)O)[C@H]1CC[C@H]2/C(=C/C=C3C[C@@H](O)C[C@H](O)C3)CCC[C@]12C	8.5
C=C1[C@H](O)CC(=C/C=C2\CCC[C@]3(C)[C@@H]([C@H](C)CCC(F)(F)C(C)(C)O)CC[C@@H]23)C[C@H]1O	9.4
C=C1[C@H](O)CC(=C/C=C2\CCC[C@]3(C)[C@@H]([C@@H](C)CCC(F)(F)C(C)(C)O)CC[C@@H]23)C[C@H]1O	9.5

Consider now this further compound.
The reported Activity of the compound `C[C@H](CCC(F)(F)C(C)(C)O)[C@H]1CC[C@H]2/C(=C/C=C3C[C@@H](O)C[C@H](O)C3)CCC[C@]12C` was 4.9

----------
# System: Rattus norvegicus
# measurement-protocol: Induction of bone mobilization activity in weaning Sprague-Dawley rat assessed as increase in serum calcium level at 780 pmol, ip for 4 consecutive dose at an interval of 24 hrs measured 24 hrs after last dose (reference value: 4.4 to 4.5 mg/dl)
# Type: functional
value-type: Activity (mg/dL)
Numbers only, in mg/dL.

C[C@@H](CCC(F)(F)C(C)(C)O)[C@H]1CC[C@H]2/C(=C/C=C3C[C@@H](O)C[C@H](O)C3)CCC[C@]12C	9.8
C=C1[C@H](O)CC(=C/C=C2\CCC[C@]3(C)[C@@H]([C@H](C)CCC(F)(F)C(C)(C)O)CC[C@@H]23)C[C@H]1O	11.2
C=C1[C@H](O)CC(=C/C=C2\CCC[C@]3(C)[C@@H]([C@@H](C)CCC(F)(F)C(C)(C)O)CC[C@@H]23)C[C@H]1O	9.8
C=C1/C(=C\C=C2/CCC[C@]3(C)[C@@H]([C@H](C)CCCC(C)(C)O)CC[C@@H]23)C[C@@H](O)C[C@@H]1O [CALCITRIOL]	7.6

Consider now this further compound.
The reported Activity of the compound `C[C@H](CCC(F)(F)C(C)(C)O)[C@H]1CC[C@H]2/C(=C/C=C3C[C@@H](O)C[C@H](O)C3)CCC[C@]12C` was 5.9
